- Target system: T1, peanut allergen Ara h 3 (peanut (Arachis hypogaea))
- T1 construct: also called F424
- Assay name: ImmunoCAP, hybridoma supernatant
Please respond with reported ImmunoCAP kUA/L for every item in the list.
Please provide the amount together with its unit, number first.

Ask: Return reported ImmunoCAP kUA/L; argument: human IgE mAb 38B7 (antibody, V domains shown, human IgE from hybridoma) VH: QVQLVESGGGVVQPGRSLRLSCVGSGFTFRRDAKYWVRQAPGKGLEWVAAISHDGGEEDYAESVKGRFTISRDNSRETVYLEMNSLRPEDTAVYYCATTRSGWYFDYWGQGALVTVSS VL: EIVLTQSPATLSLSPGARATLSCRASQSVDTYLAWYQQRRGQSPRLLIYDASKRATGIPARFSGSGSGTDFTLTISSLEPEDFAVYYCQQRNNWRTWTFGQGTKVEIN
Result: 0.23 kUA/L

Ask: Return reported ImmunoCAP kUA/L; argument: human IgE mAb 15A7 (antibody, V domains shown, human IgE from hybridoma) VH: QVQLVQSGPEVRKPGASVKVSCKTSGYMFTDYEMNWVRQAPGQGLEWMGLINPHSGDTGYAQKFQGRVSMTSDTSTRTFYLELTGLTSEDTAVYYCARSQGTFEVYYFVSWGQGSLVTVSS VL: SYVLTQPPSVSVAPGKTASITCGAKNIATKRVHWYRQKPGQAPVVVVSDEEDRSSVIPERFSGSKSGDTATLEISRVEAGDEADYYCQVWDSLADQVVFGGGTKVTVL
Result: 0.14 kUA/L

Ask: Return reported ImmunoCAP kUA/L; argument: human IgE mAb 7B6 (antibody, V domains shown, human IgE from hybridoma) VH: QVQLQQWGAGLLKPSETLSLTCAVYGGSFNGYYWSWIRQPPGKGLEWIGEIDHSGSTNYNSSLKSRVTISVDTSKNQFSLKLSSVTAADTAVYYCARRRIGSLLKYFQDWGQGTLVTVSS VL: SYELTQPPSVSVSPGQTASITCSGDKLGDSYVCWYQLKPGQSPVLVIYQDTKRPSGIPERFSGSNSGNTATLTISETQAMDEADYYCQAWDTTTDWVFGGGTKLTVL
Result: 0.32 kUA/L

Values were extracted from patent US20240254209A1.
